# Test description: TLR3 IRF3 reporter activation blockers – cell-based, poly I:C stimulus, luciferase, 10K MLSCN set, primary screen (AID 602277)
# Measurement parameters: HEK293-TLR3 RL24 IRF3 luciferase reporter, at 10 µM, stronger effect = higher value
Assign class by inhibition: not lower than 20% means Y; lower than 20% means N.

Before answering, review these 6 worked examples.
COc1ccc(S(=O)(=O)N2CCN(CC(=O)Nc3ccc(F)c(F)c3)CC2)cc1    Y
CC(C)CNC(=O)c1ccccc1NC(=O)c1ccc(CN2CCOCC2)cc1    N
CSCCC(C(=O)Nc1ccc2c(c1)OCO2)N1C(=O)c2ccccc2C1=O (stereo unspecified)    Y
Cc1ccc2c(CNCc3ccco3)cc(=O)oc2c1    N
C/C(=N\O)C(C)/[N+]([O-])=C/c1nc(C)c(C)n1O (stereo unspecified)    Y
Cc1ccc(Cc2c(C)nc3c(C(=O)O)cnn3c2C)cc1    N

Query: Kindly determine if inhibition recorded for CCc1nnc(-n2nc(C)cc2-c2ccccc2)n1N is above or exactly 20%.
Reply: Y

Query: Kindly determine if inhibition recorded for COCCn1c(C23CC4CC(CC(C4)C2)C3)n[nH]c1=S is above or exactly 20%.
Reply: Y

Query: Kindly determine if inhibition recorded for Cc1cc(Nc2ccc(C(=O)O)cc2)n2nc(C)nc2n1 is above or exactly 20%.
Reply: Y

Query: Kindly determine if inhibition recorded for Cc1nnc(SCC(=O)N2CCC(C(=O)Nc3nccs3)CC2)n1Cc1ccccc1 is above or exactly 20%.
Reply: N

Query: Kindly determine if inhibition recorded for C=CCn1c(SCc2cccc(C#N)c2)nnc1-c1ccccc1O is above or exactly 20%.
Reply: Y

Query: Kindly determine if inhibition recorded for CCN(CCCNC(=O)COc1cc(=O)n(CC)c2ccccc12)c1ccccc1 is above or exactly 20%.
Reply: N

Query: Kindly determine if inhibition recorded for CCN(CC)CCN1C(=O)c2oc3ccc(F)cc3c(=O)c2C1c1ccncc1 (stereo unspecified) is above or exactly 20%.
Reply: Y

Query: Kindly determine if inhibition recorded for CCOC(=O)c1sc(N)c(C(=O)OCC)c1COC(=O)C1CC(=O)N(Cc2ccco2)C1 (stereo unspecified) is above or exactly 20%.
Reply: N

Query: Kindly determine if inhibition recorded for O=c1c(-c2ccccc2)coc2c(CN3CCOCC3)c(O)ccc12 is above or exactly 20%.
Reply: N

Query: Kindly determine if inhibition recorded for COc1ccc(-n2ccnc2SCC(=O)NCc2ccc3c(c2)OCO3)cc1 is above or exactly 20%.
Reply: Y

====

# Test description: TLR3 IRF3 reporter activation blockers – cell-based, poly I:C stimulus, luciferase, 10K MLSCN set, primary screen (AID 602277)
# Measurement parameters: HEK293-TLR3 RL24 IRF3 luciferase reporter, at 10 µM, stronger effect = higher value
Measured metric: inhibition (%)
Please reply with the bare figure in % and do not write the unit itself.

Some molecules with recorded inhibition:
Cc1ccc(N2CCN(C(=S)c3ccc(N(C)C)cc3)CC2)cc1    -63.7
COC(=O)c1sccc1NC(=O)c1csc(C)c1    36.8
Cc1ccc(-c2cc(C(F)F)nc(NCC3CCCO3)n2)cc1 (stereo not drawn)    -60.9
COc1ccccc1CC1(C)NC(=O)N(CC(=O)Nc2cc(C)on2)C1=O (stereo not drawn)    16.4

Query: Name the recorded inhibition for O=C(NCCc1ccccn1)c1ccc(COc2ccccc2)o1 .
Reply: -2.41

====

# Test description: inhibitors of TNFa-induced NFkB p65 translocation, primary screen, imaging, HUVEC, MLSMR starter and 10KST1 sets (AID 438);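 further: compound added about 3h40 before a 20 min TNFalpha stimulation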
# Measurement parameters: HUVEC TNFa-induced p65 nuclear translocation; measured here: nuclei count (cytotoxicity indicator), at 2.08 µM
Measured metric: cell count
Give the figure by itself; no unit, no explanation.

O=C(Nc1ccc2c(c1)OCO2)c1cc2ncc(Br)cn2n1    588
Cc1ccc(-c2cc(C(=O)NCCN3CCOCC3)no2)cc1    605

Turning now to a further compound:
Query: Name the recorded cell count for Cn1c2c(c(=O)n(C)c1=O)C(CC(=O)Nc1ccccc1)C(=O)N2 (stereo not drawn) .
Reply: 604

====

# Test description: TLR3 IRF3 reporter activation blockers – cell-based, poly I:C stimulus, luciferase, 10K MLSCN set, primary screen (AID 602277)
# Measurement parameters: HEK293-TLR3 RL24 IRF3 luciferase reporter, at 10 µM, stronger effect = higher value
Measured metric: inhibition (%)
Please reply with the bare figure in % and do not write the unit itself.

Some compounds with recorded inhibition:
Cc1ccc2c(c1)C(O)(CC(=O)c1ccc3c(c1)OCO3)C(=O)N2 (configuration not stated)    23
CCCC1c2ccc(C)n2CCN1C(=O)Nc1ccccc1Cl (configuration not stated)    -190
Cc1ccc2[nH]c(=O)c(-c3noc(-c4ccncc4)n3)cc2c1    12.4
Cc1cc(C)cc(N(CC(=O)NC2CCC(C)CC2)S(=O)(=O)c2c(C)noc2C)c1 (configuration not stated)    32.5
CC1(C)CC(=O)C=C(NC2CCS(=O)(=O)C2)C1 (configuration not stated)    39.3
Cc1ccc(C)c(NS(=O)(=O)c2ccc(NC(=O)c3ccco3)cc2)c1    11.1
O=C(NC1=NCCS1)NC12CC3CC(CC(C3)C1)C2    12.2
O=C(c1ccc2nc(N3CCCCC3)sc2c1)N1CCN(c2ccccn2)CC1    3.71

Query: Name the recorded inhibition for CCOC(=O)c1ccc(NS(=O)(=O)c2ccc3c(c2)CCCN3C(C)=O)cc1 .
Reply: 6.65

Query: Name the recorded inhibition for CCN(CC)C(=O)C1CCCc2c1[nH]c1ccc(Cl)cc21 (configuration not stated) .
Reply: -12.1

Query: Name the recorded inhibition for Cc1ccc(N=C2NC(=O)CS2)c(C)c1 .
Reply: 21.7

Query: Name the recorded inhibition for COc1ccc(-c2cc3ccc(OCc4nn[nH]n4)cc3oc2=O)cc1 .
Reply: -13

====

# Test description: inhibitors of TNFa-induced NFkB p65 translocation, primary screen, imaging, HUVEC, MLSMR starter and 10KST1 sets (AID 438);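 further: compound added about 3h40 before a 20 min TNFalpha stimulation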
# Measurement parameters: HUVEC TNFa-induced p65 nuclear translocation; measured here: nuclei count (cytotoxicity indicator), at 2.08 µM
Documented cell count across a set of molecules
Give the figure by itself; no unit, no explanation.

O=C(c1ccccc1)N1CCN(Cc2ccccc2Br)CC1    234
CCN(CC)C(=O)COC(=O)c1ccc(O)cc1    440
Cn1cnc(S(=O)(=O)Nc2ccc(C(F)(F)F)cc2)c1    480

Turning now to a further molecule:
Query: Name the recorded cell count for C/C=C/COC(=O)c1[nH]c2c(c1C)C(=O)CC(c1ccc(N(C)C)cc1)C2 (centres undefined) .
Reply: 699

====

# Test description: inhibitors of TNFa-induced NFkB p65 translocation, primary screen, imaging, HUVEC, MLSMR starter and 10KST1 sets (AID 438);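 further: compound added about 3h40 before a 20 min TNFalpha stimulation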;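 on inhibition: signal is the nuclear over cytoplasmic p65 intensity ratio per well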
# Measurement parameters: HUVEC TNFa-induced p65 nuclear translocation; at 2 µM, stronger effect = higher value, 0% TNFa-plus-vehicle, 100% no-TNFa wells
Measured metric: inhibition (%)
Please reply with the bare figure in % and do not write the unit itself.

Some compounds with recorded inhibition:
COc1ccccc1OCC(=O)NCC1CCCCC1    -28.2
COc1ccc(NC(=O)Nc2ccc(C)cc2OC(F)F)cc1OC    -6.5

Query: Name the recorded inhibition for CN(CCCNC(=O)c1cn(C)c2ccc(S(=O)(=O)N(C)C)cc2c1=O)c1ccccc1 .
Reply: -4.5

Query: Name the recorded inhibition for O=S(=O)(c1ccccc1)c1nc(-c2cccs2)oc1NCC1CCCO1 (stereo not given) .
Reply: -1.8

Query: Name the recorded inhibition for COC(=O)c1sc(N2C(=O)C(O)=C(C(=O)c3ccc(C)o3)C2c2ccc(F)cc2)nc1C (stereo not given) .
Reply: 3

====

# Test description: TLR3 IRF3 reporter activation blockers – cell-based, poly I:C stimulus, luciferase, 10K MLSCN set, primary screen (AID 602277)
# Measurement parameters: HEK293-TLR3 RL24 IRF3 luciferase reporter, at 10 µM, stronger effect = higher value
Documented inhibition across a set of molecules
Please reply with the bare figure in % and do not write the unit itself.

CCOc1ccc(N2CC(C(=O)NCCc3ccc(OC)c(OC)c3)CC2=O)cc1 (centres undefined)    25.1
CC1=C(C(N)=O)C(c2ccncc2)n2nc(-c3ccccc3Cl)nc2N1 (centres undefined)    21.9
O=C(NCc1ccc(F)cc1)c1cc2ccccn2n1    -17.7
COc1ccc(N2CCN(CCCNC(=O)C3CCCN(S(=O)(=O)c4cnc[nH]4)C3)CC2)cc1 (centres undefined)    17.4
CCOC(=O)CSc1nnc(-c2ccc(NS(=O)(=O)c3ccc(C)cc3)cc2)o1    29.4
COC(=O)C(C)NC(=O)C12CC3CC(CC(C3)C1)C2 (centres undefined)    23

Query: Name the recorded inhibition for CC(C)OCCCNC(=O)c1cc2c(s1)CS(=O)(=O)C2 .
Reply: 5.21

Query: Name the recorded inhibition for Cc1cc(C)cc(N2C(=O)CC(N3CCOCC3)C2=O)c1 (centres undefined) .
Reply: 32.5

Query: Name the recorded inhibition for COc1ccccc1N1CC(C(=O)Nc2cccc(C(=O)O)c2)CC1=O (centres undefined) .
Reply: -4.45

Hello, the source for this data is PubChem BioAssay, in case you need it.
